Cited source: patent US20190241648A1

# Assay System: T1, human ApoC3 (huApoC3), native protein purified from human serum (human, UniProt P02656 21-99)
# T1 construct: Athens Research and Technology; randomly biotinylated in some assays; also called Apolipoprotein C3
# T1 sequence (P02656 21-99): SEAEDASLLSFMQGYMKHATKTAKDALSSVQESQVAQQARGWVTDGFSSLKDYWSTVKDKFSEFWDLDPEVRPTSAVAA
# Protocol Description: SPR Biacore, huApoC3 on chip, scFv-Fc as analyte
Readout Type: koff (s⁻¹)
Provide the reading as a plain figure in s⁻¹.

Worked cases, answers included:
* 5A11 scFv-Fc (Fc fusion, scFv-Fc format) VH: QVQVQESGPGLVKPSQTLSLTCTVSGVSITTRYYAWSWIRQPPGKGLEWMGVIAYDGSTYYSPSLKSRTSISRDTSKNQFSLQLTSVTPEDTAVYYCARVRLIEAPYEYDYWGQGTQVTVSS VL: QAVVTQEPSLSVSPGGTVTLTCGLSSGSVTTRSYPGWFQQTPGQAPRSLIHSTSSRHSGIPTRFSGSISGNKAALTITGAQPEDEADYYCALDIGSYIVFGGGTHLTVL | 0.000668
* 5A4 scFv-Fc (Fc fusion, scFv-Fc format) VH: QLQLVESGGGLVQPGGSLRLSCVASGFAFSHYTMYWVRQAPVRGLERVSAISGGGDRTIYTDSVKGRFTISRDNAANALYLQMNSLQPEDTAVYYCVAQGYEYWGQGTRVTVSS VL: ATMLTQSPGSLSVVPGESASISCKAIQSLVHTDGKTYLYWFLQKPGQSPQRLIYQVSNRGSGVPDRFTGSGSGTDFTLKISGVKAEDAGVYYCAQGTYSSKTFGQGTKLEIK | 0.000351

// below: koff requested for another binder
Input: State the recorded koff for this entry: 8F4 scFv-Fc (Fc fusion, scFv-Fc format) VH: QLQLVESGGGLVQPGGSLRLSCAASGFAFSSYSMYWVRQAPGKGLERVAAIKTDGGSTNYADSVKGRFTVSRDNAKNTLYLQMNSLKSEDTAVYYCVIQGYGTWGQGTQVTVSS VL: DLVLTQIPGSLSVVPGESASISCKASQSLVHSDGKTYLYWLLQKPGQSPQRLIYQVSNRGSGVPDRFTGSGSGTDFTLKISGVEAEDAGVYYCAQATYYGHSFGSGTRLEIK
Output: 9.44e-05
